system: Staphylococcus aureus (ATCC 43300); experiment: Antibacterial MIC, broth microdilution (CLSI); format: cell-based; conditions: SI, IC50 (μM)/MIC80 (μM); HEK293 cytotoxicity; Alkyl Amidines and NH Pyrroles
parameter: S. aureus Selectivity Indices, Group

C/N=C(/CCNC(=O)c1cc(NC(=O)c2cc(NC(=O)c3ccc(/C=C/c4cnc5ccccc5c4)cc3)cn2C)cn1C)NC [Ia10] = B (Group B: 3 < SI <= 5)
CN(C)c1ccc(/C=C/c2ccc(C(=O)Nc3c[nH]c(C(=O)Nc4c[nH]c(C(=O)NCCN5CCOCC5)c4)c3)cn2)cc1 [IIIb7] = B (Group B: 3 < SI <= 5)

* * *

Task for the reader: assign each of the following compounds its reported MIC50.
system: Scedosporium spp.; assay: Expanded set of filamentous fungi, MIC broth microdilution (CLSI); format: cell-based; conditions: isolate S1, MIC at 50% inhibition

### Prompt Bench note: what MIC50 did [H]/N=C(\CCNC(=O)c1cc(NC(=O)c2cc(NC(=O)c3ccc(C=Cc4ccc(N(C)C)cc4)nc3)cn2C)cn1C)NC show?
### Response 1 to 8 µg/mL

### Prompt Bench note: what MIC50 did C/N=C(/CCNC(=O)c1cc(NC(=O)c2cc(NC(=O)c3ccc(/C=C/c4cnc5ccccc5c4)cc3)cn2C)cn1C)NC show?
### Response ≤ 1 µg/mL

### Prompt Bench note: what MIC50 did CNC(=N)CCNC(=O)c1cc(NC(=O)c2cc(NC(=O)c3ccc(/C=C/c4cnc5ccccc5c4)cc3)cn2C)cn1C show?
### Response ≤ 1 µg/mL

### Prompt Bench note: what MIC50 did C/N=C(\CCNC(=O)c1cc(NC(=O)c2cc(NC(=O)c3ccc(/C=C/c4ccc(N(C)C)cc4)nc3)cn2C)cn1C)NC show?
### Response 1 to 8 µg/mL

* * *

system: Staphylococcus aureus (ATCC 43300); experiment: Antibacterial MIC, broth microdilution (CLSI); format: cell-based; details: Staphylococcus aureus, ATCC43300; read-out: MIC80 S. aureus
parameter: MIC80

### Prompt Bench note: what MIC80 did CCCNC(=O)c1cc(NC(=O)c2cc(NC(=O)c3ccc(/C=C/c4cnc5ccccc5c4)cc3)cn2C)cn1C show?
### Response < 5 µM

### Prompt Bench note: what MIC80 did CC/N=C(\N)CCNC(=O)c1cc(NC(=O)c2cc(NC(=O)c3ccc(/C=C/c4ccc5nonc5c4)cc3)cn2C)cn1C show?
### Response 5 to 25 µM

### Prompt Bench note: what MIC80 did CNC(=O)c1cc(NC(=O)c2cc(NC(=O)c3ccc(/C=C/c4cnc5ccccc5c4)cc3)cn2C)cn1C show?
### Response < 5 µM

### Prompt Bench note: what MIC80 did C/N=C(/CCNC(=O)c1cc(NC(=O)c2cc(NC(=O)c3ccc(/C=C/c4ccc5nonc5c4)cc3)cn2C)cn1C)NC show?
### Response < 5 µM

* * *

Task for the reader: assign each of the following compounds its reported % Normalised Fluorescence with polyAU RNA.
System: PolyAU double stranded RNA
Assay: Fluorescence intercalator displacement (FID) assay, SYBR-safe probe
Settings: 20 μM compound, 30° C., lower % = stronger binding
Procedure: The ability of compounds of the invention to bind to DNA and RNA was assessed using a fluorescence intercalator displacement assay. Genomic double stranded DNA (salmon) or PolyAU double stranded RNA is treated with probe molecule (Sybr-Safe) that increases its fluorescence upon binding to nucleic acids. […]
Answer in %, number only, no unit symbol.

### Prompt Bench note: what % Normalised Fluorescence with polyAU RNA did CCCCCNC(=N)CCNC(=O)c1cc(NC(=O)c2cc(NC(=O)c3ccc(/C=C/c4cnc5ccccc5c4)cc3)cn2C)cn1C [Ia35] show?
### Response 3

### Prompt Bench note: what % Normalised Fluorescence with polyAU RNA did Cn1cc(NC(=O)c2cc(NC(=O)c3ccc(/C=C/c4ccc5nonc5c4)cc3)c[nH]2)cc1C(=O)NCCN1CCOCC1 [IIIb9] show?
### Response 30

### Prompt Bench note: what % Normalised Fluorescence with polyAU RNA did CCCCCCCCCCCCCCCCC[N+](C)(C)CCNC(=O)c1cc(NC(=O)c2cc(NC(=O)c3ccc(/C=C/c4cnc5ccccc5c4)cc3)cn2C)cn1C [Ic16] show?
### Response 64
